The origin of these recorded values is patent US20120276102A1.

target: human IL-21R expressed on cells (human, UniProt Q9HBE5 20-538); test: cell-based or functional assay
Sequence (Q9HBE5 20-538 limits assumed): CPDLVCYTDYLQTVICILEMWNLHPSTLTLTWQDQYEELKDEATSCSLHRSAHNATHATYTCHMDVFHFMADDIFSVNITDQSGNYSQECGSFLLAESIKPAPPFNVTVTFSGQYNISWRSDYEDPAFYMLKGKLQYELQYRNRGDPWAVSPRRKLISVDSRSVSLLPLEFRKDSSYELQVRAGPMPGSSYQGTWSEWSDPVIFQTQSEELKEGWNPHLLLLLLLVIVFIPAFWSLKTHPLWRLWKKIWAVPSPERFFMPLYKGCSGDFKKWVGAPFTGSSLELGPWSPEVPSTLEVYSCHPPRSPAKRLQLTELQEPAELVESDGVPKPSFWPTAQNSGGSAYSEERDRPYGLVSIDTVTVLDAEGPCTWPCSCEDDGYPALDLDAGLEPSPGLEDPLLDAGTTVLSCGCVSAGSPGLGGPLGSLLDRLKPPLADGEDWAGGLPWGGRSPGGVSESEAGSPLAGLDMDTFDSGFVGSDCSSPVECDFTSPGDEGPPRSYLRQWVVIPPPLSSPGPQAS
Given measured Human IL-21R-TF1 Proliferation IC50, output 1 if it is greater than or equal to 4 nM and 0 if not.

Task: Entry AbO (antibody, human IgG1, V domains shown, CDR3 graft, residue limits derived as for m29; also called VHP/VL16; VHPTM/VL16) VH: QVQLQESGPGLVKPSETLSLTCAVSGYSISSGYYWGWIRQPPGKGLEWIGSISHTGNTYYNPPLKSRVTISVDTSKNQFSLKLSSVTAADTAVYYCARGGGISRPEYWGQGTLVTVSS VL: SSELTQDPAVSVALGQTVRITCQGDSLRTYYASWYQQKPGQAPVLVIYGKHKRPSGIPDRFSGSSSGNTASLTITGAQAEDEADYYCVTRSAKGNPHVLFGGGTQLTVL : is its Human IL-21R-TF1 Proliferation IC50 no less than 4 nM?
Output: 0

Task: Entry AbL (antibody, IgG1, V domains shown, As for AbA: IgG1/lambda, CDR3 graft, residue limits derived; also called VH3/VL13) VH: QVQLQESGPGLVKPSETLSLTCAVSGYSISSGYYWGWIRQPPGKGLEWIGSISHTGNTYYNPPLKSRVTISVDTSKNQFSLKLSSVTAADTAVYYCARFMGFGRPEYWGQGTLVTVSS VL: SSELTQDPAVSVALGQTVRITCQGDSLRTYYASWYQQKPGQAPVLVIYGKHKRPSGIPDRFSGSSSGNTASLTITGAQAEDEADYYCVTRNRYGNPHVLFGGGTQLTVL : is its Human IL-21R-TF1 Proliferation IC50 no less than 4 nM?
Output: 1

Task: Entry AbQ (antibody, human IgG1, V domains shown, CDR3 graft, residue limits derived as for m29; also called VH3/VL2; VH3DM/VL2) VH: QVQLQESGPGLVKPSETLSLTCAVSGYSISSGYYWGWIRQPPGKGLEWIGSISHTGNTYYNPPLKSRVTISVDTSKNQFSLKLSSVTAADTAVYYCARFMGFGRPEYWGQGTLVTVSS VL: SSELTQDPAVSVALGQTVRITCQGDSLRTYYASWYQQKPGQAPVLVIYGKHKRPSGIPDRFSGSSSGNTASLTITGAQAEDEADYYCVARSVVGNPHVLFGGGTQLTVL : is its Human IL-21R-TF1 Proliferation IC50 no less than 4 nM?
Output: 1

Task: Entry AbE (antibody, IgG1, V domains shown, As for AbA: IgG1/lambda, CDR3 graft, residue limits derived; also called VHP/VL14) VH: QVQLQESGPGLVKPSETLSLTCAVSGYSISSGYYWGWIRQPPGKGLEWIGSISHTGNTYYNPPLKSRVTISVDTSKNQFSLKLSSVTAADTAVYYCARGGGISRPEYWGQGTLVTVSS VL: SSELTQDPAVSVALGQTVRITCQGDSLRTYYASWYQQKPGQAPVLVIYGKHKRPSGIPDRFSGSSSGNTASLTITGAQAEDEADYYCMARSRKGNPHVLFGGGTQLTVL : is its Human IL-21R-TF1 Proliferation IC50 no less than 4 nM?
Output: 0

Task: Entry AbG (antibody, IgG1, V domains shown, As for AbA: IgG1/lambda, CDR3 graft, residue limits derived; also called VHP/VL18) VH: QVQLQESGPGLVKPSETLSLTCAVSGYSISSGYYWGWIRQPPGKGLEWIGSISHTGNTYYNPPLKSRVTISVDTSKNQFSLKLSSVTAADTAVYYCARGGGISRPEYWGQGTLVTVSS VL: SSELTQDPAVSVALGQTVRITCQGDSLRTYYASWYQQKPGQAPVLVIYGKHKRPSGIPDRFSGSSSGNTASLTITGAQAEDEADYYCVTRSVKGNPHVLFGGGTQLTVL : is its Human IL-21R-TF1 Proliferation IC50 no less than 4 nM?
Output: 0
